# pIC50 listing for each entry below
study-system: PR (Homo sapiens, UniProt P06401)
Construct: alkaline phosphatase activity in T47D cells; endogenous in cells
measurement-protocol: T47D cell alkaline phosphatase assay
experimental-context: read-out: Alk. Phos. IC50
Scale explanation: pIC50 corresponds to minus log10 of a concentration expressed in moles per litre.

These solved cases illustrate the format of a correct answer.
{"line-notation": "CC1(C)CC(=O)c2ccc(-c3ccc(Cl)cc3Cl)cc21", "data-value": 6.46}
{"line-notation": "Cc1cccc(-c2ccc3c(c2)C(C)(C)CC3=O)c1", "data-value": 6.65}
{"line-notation": "CC1(C)CC(=O)c2ccc(-c3ccccc3Cl)cc21", "data-value": 6.13}
{"line-notation": "CC1(C)CC(=O)c2ccc(-c3ccc(Cl)cc3)cc21", "data-value": 6.70}
{"line-notation": "CCC(=O)c1ccc(-c2ccc(C#N)n2C)cc1", "data-value": 6.94}
{"line-notation": "Cn1c(C#N)ccc1-c1ccc(C(=O)c2ccccc2)cc1", "data-value": 6.52}

# return recorded pIC50 for input Cn1c(C#N)ccc1-c1ccc(C(=O)c2cccs2)cc1
6.58

# return recorded pIC50 for input CC1(C)CC(=O)c2ccc(-c3ccc(F)c(Cl)c3)cc21
7.00

# return recorded pIC50 for input CC1(C)CC(=O)c2ccc(-c3cccc(Cl)c3)cc21
7.18

# return recorded pIC50 for input Cn1c(C#N)ccc1-c1ccc2c(c1)CCCC2=O
7.56

# return recorded pIC50 for input CC1(C)CC(=O)c2ccc(-c3cc(Cl)ccc3Cl)cc21
6.20

# return recorded pIC50 for input Cc1ccc(-c2ccc3c(c2)C(C)(C)CC3=O)cc1
6.06

# return recorded pIC50 for input CC1(C)CC(=O)c2ccc(-c3ccccc3)cc21
6.52
